assayed_system: rhPSMA (Homo sapiens)
Construct: purchased R&D research
Sequence (Q04609 whole entry): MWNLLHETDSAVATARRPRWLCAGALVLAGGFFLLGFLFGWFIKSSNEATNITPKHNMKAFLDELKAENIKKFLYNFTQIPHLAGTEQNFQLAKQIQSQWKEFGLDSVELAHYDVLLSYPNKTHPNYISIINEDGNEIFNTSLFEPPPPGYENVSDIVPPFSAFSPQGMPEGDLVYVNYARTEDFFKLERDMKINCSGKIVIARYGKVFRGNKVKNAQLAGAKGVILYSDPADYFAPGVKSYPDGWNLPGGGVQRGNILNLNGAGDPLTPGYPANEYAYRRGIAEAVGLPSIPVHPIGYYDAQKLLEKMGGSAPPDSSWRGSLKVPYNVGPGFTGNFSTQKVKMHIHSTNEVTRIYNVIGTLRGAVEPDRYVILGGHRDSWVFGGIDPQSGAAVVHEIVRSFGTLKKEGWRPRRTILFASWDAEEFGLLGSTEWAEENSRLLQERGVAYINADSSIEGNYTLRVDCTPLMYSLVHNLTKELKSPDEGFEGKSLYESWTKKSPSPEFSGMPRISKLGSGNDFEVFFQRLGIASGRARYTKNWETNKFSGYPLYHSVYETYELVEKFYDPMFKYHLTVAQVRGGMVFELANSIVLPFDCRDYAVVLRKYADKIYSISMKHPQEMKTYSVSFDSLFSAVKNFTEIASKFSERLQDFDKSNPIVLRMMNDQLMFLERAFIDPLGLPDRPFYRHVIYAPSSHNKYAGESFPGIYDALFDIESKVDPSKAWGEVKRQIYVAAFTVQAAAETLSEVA
assay: PSMA inhibition assay
Assay type: biochemical
stated_conditions: average of three trials; read-out: Average Ki
Experimental: A 10 mM solution of N-acetyl-aspartyl-glutamate (NAAG) in 40 mM NaOH was diluted to 40 μM in Reaction Buffer (0.1 M Tris-HCl, pH=7.5), and the solution was added to a 384 well plate (10 μL per well). […] Levels of glutamic acid were quantified using Amplex® Red Glutamic Acid/Glutamate Oxidase Assay Kit (Invitrogen). Fluorescence intensities were measured using a SpectraMax Gemini EM microplate reader (GMI) with excitation and emission filters of 545 and 590 nm, respectively. […]
Here, each record is paired with measured Ki data.
Provide only the numeric value, understood in nM.

Given the molecule NOCC(=O)NCCOCCOCCNC(=O)c1ccc(C(=O)NCCOCCOCCNC(=O)CCCCCCCNC(=O)CCC(NC(=O)NC(CCC(=O)O)C(=O)O)C(=O)O)cc1 (stereo not drawn) and test system rhPSMA (Homo sapiens), the measured Ki is 1.98

Given the molecule NOCC(=O)NCCOCCOCCOCCNC(=O)c1ccc(C(=O)NCCCCCCc2cn(CCCC[C@H](NC(=O)N[C@@H](CCC(=O)O)C(=O)O)C(=O)O)nn2)cc1 and test system rhPSMA (Homo sapiens), the measured Ki is 0.00478

Given the molecule NOCC(=O)NCCOCCOCCNc1cc(NCCOCCOCCNC(=O)CCCCCCCNC(=O)CCC(NC(=O)NC(CCC(=O)O)C(=O)O)C(=O)O)c([N+](=O)[O-])cc1[N+](=O)[O-] (stereo not drawn) and test system rhPSMA (Homo sapiens), the measured Ki is 0.0482
